assay: Michaelis constant / Vmax of 2-pyrimidinone deoxyribose analogs with the liver enzyme; assay type: biochemical, rat; settings: rat, liver aldehyde oxidase, pH 9.5
endpointLabel: Km (µM)
Report the figure in µM without appending any unit label.

Exam item: Km for O=c1ncc(I)cn1[C@H]1C[C@H](O)[C@@H](CO)O1 ?
Marked response: 87

---

biological target: IPdR oxidase; experiment: Effect of inhibitors on the oxidation of IPdR to IUdR by liver homogenate; details: liver homogenate; read-out: IC50 (concentration at 50% inhibition of the conversion of IPdR to IUdR)
Answer each item with its documented pIC50.
Please treat pIC50 as minus the base-10 logarithm of the molar concentration.

Exam item: pIC50 for C[n+]1cccc(C(N)=O)c1 [N^1 -methylnicotinamide] ?
Marked response: 3.00

Exam item: pIC50 for OCCS ?
Marked response: 2.74

Exam item: pIC50 for CCCC(C(=O)OCCN(CC)CC)(c1ccccc1)c1ccccc1 [SKF-525A] ?
Marked response: 4.52

Exam item: pIC50 for O[C@H](CS)[C@H](O)CS (racemic) ?
Marked response: 4.00

Exam item: pIC50 for CC=O ?
Marked response: 2.30

Exam item: pIC50 for NO [Hydroxyl amine] ?
Marked response: 3.00

Exam item: pIC50 for OO [Hydrogen peroxide] ?
Marked response: 2.00
